# Tested on: HCC 2998
# procedureDetails: NCI tumour cell line growth inhibition, 48 h
Calls of active or inactive are those of the source. Cut-off read from the data, not from the text of the source: active = GI50 up to about 1.1 µM and inactive = higher.
Field: GI50. Provide a value for each of the compounds that follow.

Query: Return reported GI50; argument: CCCCC/C=C1/CC(CO)(COC(=O)CC(C(C)C)C(C)C)OC1=O (stereo not given)
Result: 16.7 µM (inactive)

Query: Please report the recorded GI50 for CCOc1ccccc1N1C(=O)C(=O)C(c2nc3ccccc3s2)C(=O)C1=O .
Result: > 100 µM (inactive)

Query: State the recorded GI50 for this entry: c1ccc(COc2nc3cc(C45CC6CC(CC(C6)C4)C5)ccc3[nH]2)cc1
Result: 9.68 µM (inactive)

Query: // lookup GI50 for CCc1n[nH]c(=O)n1N1C(=O)C2CCCCC2C1=O (stereo not given)
Result: > 100 µM (inactive)

Query: For Nn1c(CCCCCCCCc2nnc(COc3c(O)ccc4ccccc34)n2N)nnc1COc1c(O)ccc2ccccc12 , what is its reported GI50?
Result: > 100 µM (inactive)

Query: Would you kindly share the measured GI50 for O=C(NCCCN(CCCCN(CCCNC(=O)C(F)(F)F)CCCc1ccccc1)CCCc1ccccc1)C(F)(F)F ?
Result: 1.78 µM (inactive)

Query: Would you mind telling me what GI50 value was observed for CC(=O)OC[C@@H]1[C@H]2CC[C@]3(C)[C@@H](OC(C)=O)CC[C@H]3[C@@H]2CC[C@H]1C1(C)SCCS1 ?
Result: > 25 µM (inactive)

Query: Would you kindly share the measured GI50 for N#CC(C#N)=C(N)/C(C#N)=C/c1ccc2ccccc2n1 ?
Result: 77.3 µM (inactive)

Query: Which GI50 reading was recorded for the compound CCC(=O)C(C)C(=O)C(=O)C(=O)OC (stereo not given) ?
Result: > 100 µM (inactive)

Query: Item O=C(c1cc2c(c3ccccc13)NCCN=C2C(F)(F)F)C(F)(F)F has what recorded GI50?
Result: 17.5 µM (inactive)

Query: I'd like to know its GI50. The compound in question is COc1cc(O)c2c(c1)C(=O)c1cc(C)cc(O)c1C2=O [PHYSCION]
Result: > 100 µM (inactive)

Query: State the recorded GI50 for this entry: N/N=C1\C(=O)N(c2ccc(Cl)cc2Cl)C(=O)C(=O)C1c1nc2ccccc2o1 (stereo not given)
Result: > 100 µM (inactive)

Query: // lookup GI50 for CC(=O)/N=C1\NC(=O)/C(=C/c2ccc(/C=C3/C(=O)N/C(=N\C(C)=O)N3C)cc2)N1C
Result: > 100 µM (inactive)

Query: Any idea what GI50 was measured for Cc1ccc2c(c1)C(=O)/C(=C\c1ccccc1)CCS2(=O)=O ?
Result: 12.2 µM (inactive)

Query: Look at this compound and give its reported GI50. CC(=O)NC(CCCCNC(=O)NCCCl)C(=O)NCc1ccccc1 (stereo not given)
Result: > 100 µM (inactive)
